B1: KRT18 (parent)
chain: KSQDLAKIMADIRAQYDELARKNR

Variants of: B1
test: protein stability index of a GFP-peptide fusion (GPS, HEK-293T) (PSI 1-6); higher = more stable;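 also: lentivirally expressed fusions sorted by FACS into six bins by GFP to DsRed ratio, PSI derived from sequencing read proportions per bin multiplied by bin number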
condition-info: c terminus: a fixed tail appended
protein stability index of 3 or higher: YES. Under 3: NO.

Could you please find out whether "E18P" has protein stability index that meets 3 or exceeds it?
NO

Say whether "Q15A" shows protein stability index of 3 or more.
NO

Threshold query (protein stability index >= 3) on "K22S"
NO

Given "D17F" , state whether its protein stability index is at least 3.
NO

Confirm if protein stability index reported for the variant "S2H" is 3 or above.
NO

API: above_or_equal(metric=protein stability index, cutoff=3) for item "R13W"
NO

Can "D17E" be said to have protein stability index at or above 3?
NO

Can "L5S" be said to have protein stability index at or above 3?
YES

protein stability index >= 3 for "Q15F" ?
NO

// inclusive: protein stability index at least 3? input: "A14L"
NO

Entry "Q3V" : is its protein stability index no less than 3?
NO

Check if protein stability index >= 3 (inclusive). Item: "R21G"
YES

Say whether "A6L" shows protein stability index of 3 or more.
NO

Would you say "K1E" shows protein stability index at minimum 3?
NO

Test whether the variant "A6Q" records protein stability index of 3 or higher.
YES

Entry "K22R" : is its protein stability index no less than 3?
NO

I'd appreciate it if you could say whether "R13L" has protein stability index at least equal to 3.
NO

Textbook exercise: given the entry "R13H" , state whether its protein stability index is greater than or equal to 3.
NO

Can "N23G" be said to have protein stability index at or above 3?
NO

Please check the record "R24C" and state if its protein stability index is at or above 3.
NO

Could you please find out whether "A20D" has protein stability index that meets 3 or exceeds it?
YES

Check if protein stability index >= 3 (inclusive). Item: "A20T"
NO

Please tell me: is the variant "M9T" at or over 3 in terms of protein stability index?
YES

Does "R21E" have a reported protein stability index of at least 3?
NO

Check the entry "A20L" : does protein stability index equal or exceed 3?
NO

Quick check, protein stability index >= 3? "A20W"
NO

Quick check: does "R13Q" have protein stability index greater than or equal to 3?
NO

Determine whether measured protein stability index meets or exceeds 3 for "A14D"
NO

Item "E18I" with protein stability index of 3 or above?
NO

hey, is protein stability index for this one >= 3? "R13P"
YES

hey, is protein stability index for this one >= 3? "N23P"
YES

In plain terms: is recorded protein stability index at least 3 for "R24P" ?
YES
